Data credit: paper PMC6968685

# method: Cytotoxicity evaluation, MTT
# Format: cell-based, human
# conditionDescription: human
Field 'label' (enum: label 1 / label 0). Set to label 1 when CC50 at 72 h is strictly under 5 µM; else label 0.

Illustrative cases are given below, each with its answer.
smi	cat
COc1ccc2c(-c3ccc(CNCCCCN(C)C)cc3)cc(-c3ccc(CNCCCCN(C)C)cc3)nc2c1	label 0
COc1ccc2c(-c3ccc(CNCCCN(C)C)cc3)nc(-c3ccc(CNCCCN(C)C)cc3)cc2c1	label 1
CN1CCN(CCCCNCc2ccc(-c3cc(-c4ccc(CNCCCCN5CCN(C)CC5)cc4)c4ccccc4n3)cc2)CC1	label 0
c1ccc2c(-c3ccc(CNCCN4CCOCC4)cc3)cc(-c3ccc(CNCCN4CCOCC4)cc3)nc2c1	label 1
c1ccc2c(-c3ccc(CNCCCN4CCOCC4)cc3)nc(-c3ccc(CNCCCN4CCOCC4)cc3)nc2c1	label 1

CC50 at 72 h strictly < 5 µM for this compound? CN(C)CCNCc1ccc(-c2nc(-c3ccc(CNCCN(C)C)cc3)c3ccccc3n2)cc1
label 0

Then this compound: COc1ccc2c(-c3ccc(CNCCCN4CCN(C)CC4)cc3)cc(-c3ccc(CNCCCN4CCN(C)CC4)cc3)nc2c1
label 0
